system-name: recombinant human SOS1 polypeptide (amino acids 560-1049) (Homo sapiens)
Construct: corresponding to amino acids 560-1049, expressed in E. Coli; made in house; host or cells: E. coli
test: HTRF displacement assay: inhibition of labeled tracer binding to SOS1
reported-conditions: Table A, Morrison equation for competitive binding
# log10 Ki annotations
parameter-measured: log10 Ki (log10 of the value in nM)

structure-smiles-string: CCN1CC2(C1)CN(c1cc3c(N[C@H](C)c4cccc(C(F)(F)F)c4F)nnc(C)c3cn1)C2
system-name: recombinant human SOS1 polypeptide (amino acids 560-1049) (Homo sapiens)
parameter-measured: log10 Ki
value-measured: -0.57
//
structure-smiles-string: Cc1nnc(N[C@H](C)c2cccc(C(F)(F)F)c2F)c2cc(N3CCC34CN(C)C4)ncc12
system-name: recombinant human SOS1 polypeptide (amino acids 560-1049) (Homo sapiens)
parameter-measured: log10 Ki
value-measured: -0.17
//
structure-smiles-string: Cc1c(C#N)cccc1[C@@H](C)Nc1nnc(C)c2cnc(N3CCC4(CN(C)C4)C3)cc12
system-name: recombinant human SOS1 polypeptide (amino acids 560-1049) (Homo sapiens)
parameter-measured: log10 Ki
value-measured: -0.31
//
structure-smiles-string: Cc1c(C#N)cccc1[C@@H](C)Nc1nnc(CN(C)C)c2cnc(N3CC4(COC4)C3)cc12
system-name: recombinant human SOS1 polypeptide (amino acids 560-1049) (Homo sapiens)
parameter-measured: log10 Ki
value-measured: 1.26
//
structure-smiles-string: Cc1c(C#N)cccc1[C@@H](C)Nc1nnc(C)c2cnc(N3CC4(C3)CN(C(C)C)C4)cc12
system-name: recombinant human SOS1 polypeptide (amino acids 560-1049) (Homo sapiens)
parameter-measured: log10 Ki
value-measured: -0.26
//
structure-smiles-string: Cc1c([C@@H](C)Nc2nnc(C)c3cnc(N4CC5(CN(C)C5)C4)cc23)cccc1C(F)(F)F
system-name: recombinant human SOS1 polypeptide (amino acids 560-1049) (Homo sapiens)
parameter-measured: log10 Ki
value-measured: -0.79
//
structure-smiles-string: Cc1nnc(N[C@H](C)c2cccc(C(F)(F)F)c2F)c2cc(N(C)[C@@H]3CCCN(C)C3)ncc12
system-name: recombinant human SOS1 polypeptide (amino acids 560-1049) (Homo sapiens)
parameter-measured: log10 Ki
value-measured: -0.34

* * *

Test system: pERK in MKN1 cells
test: pERK inhibition, In-Cell Western (LI-COR Odyssey), MKN1 cells
Assay type: cell-based
reported-conditions: Homo sapiens, MKN-1, Table B1; MKN1 or H358 cells (table does not say which); 0.5-1 hour incubation; read-out: IC50 (nM), pERK inhibition
# log10(IC50) annotations
parameter-measured: log10(IC50) (log10 of the value in nM)

structure-smiles-string: Cc1nnc(N[C@H](C)c2cccc(C(F)F)c2F)c2cc(N3CCC34CN(C)C4)ncc12
system-name: pERK in MKN1 cells
log10(IC50): 1.25
--
structure-smiles-string: Cc1nnc(N[C@H](C)c2cccc(C(C)(F)F)c2F)c2cc(N(C)C)ncc12
system-name: pERK in MKN1 cells
log10(IC50): 2.28
--
structure-smiles-string: COC1(c2cc3c(N[C@H](C)c4cccc(C#N)c4C)nnc(C)c3cc2F)CCOCC1
system-name: pERK in MKN1 cells
log10(IC50): 2.55
--
structure-smiles-string: Cc1c(C#N)cccc1[C@@H](C)Nc1nnc(N2CC[C@H](N(C)C)C2)c2cnc(N3C[C@H]4C[C@@H]3CO4)cc12
system-name: pERK in MKN1 cells
log10(IC50): 2.08
--
structure-smiles-string: Cc1c(C#N)cccc1[C@@H](C)Nc1nnc(C)c2cc(Cl)c(N(C)[C@H]3CCN(C)C3)cc12
system-name: pERK in MKN1 cells
log10(IC50): 2.71
--
structure-smiles-string: Cc1c(C#N)cccc1[C@@H](C)Nc1nnc(C)c2c(C)nc(N3CCN(C)C(C)(C)C3)cc12
system-name: pERK in MKN1 cells
log10(IC50): 1.41
--
structure-smiles-string: COC1(c2cc3c(N[C@H](C)c4cccc(C#N)c4C)nnc(C)c3cn2)CCN(C(C)=O)CC1
system-name: pERK in MKN1 cells
log10(IC50): 2.75

* * *

system-name: recombinant human SOS1 polypeptide (amino acids 560-1049) (Homo sapiens, UniProt Q07889)
Construct: corresponding to amino acids 560-1049, expressed in E. Coli; made in house; host or cells: E. coli
Sequence (Q07889 560-1049): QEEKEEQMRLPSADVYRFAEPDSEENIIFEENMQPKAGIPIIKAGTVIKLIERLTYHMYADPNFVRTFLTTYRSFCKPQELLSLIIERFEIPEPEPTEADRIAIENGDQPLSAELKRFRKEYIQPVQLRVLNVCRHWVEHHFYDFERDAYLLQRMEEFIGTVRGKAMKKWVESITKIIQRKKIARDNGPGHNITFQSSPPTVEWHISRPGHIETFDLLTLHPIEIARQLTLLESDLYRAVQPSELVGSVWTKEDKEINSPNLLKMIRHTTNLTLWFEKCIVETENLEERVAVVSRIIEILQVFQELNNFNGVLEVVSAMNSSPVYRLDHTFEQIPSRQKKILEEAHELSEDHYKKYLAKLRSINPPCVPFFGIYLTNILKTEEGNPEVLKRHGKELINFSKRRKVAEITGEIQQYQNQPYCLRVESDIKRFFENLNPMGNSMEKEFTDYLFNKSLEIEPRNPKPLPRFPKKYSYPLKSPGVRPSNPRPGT
test: HTRF displacement assay: inhibition of labeled tracer binding to SOS1
reported-conditions: Table A1, Morrison equation for competitive binding
Where a name gives a salt, the structure may show the parent alone.
parameter-measured: Ki (nM)

compound: Cc1c(C#N)cccc1[C@@H](C)Nc1nnc(C)c2cc(CF)c(N3CCN(C)CC3)cc12 [Example P-186]
system-name: recombinant human SOS1 polypeptide (amino acids 560-1049) (Homo sapiens, UniProt Q07889)
parameter-measured: Ki
value-measured: 1.27
//
compound: Cc1nnc(N[C@H](C)c2cccc(C(F)F)c2F)c2cc(N3CCC34CNC4)ncc12 [Example P-237]
system-name: recombinant human SOS1 polypeptide (amino acids 560-1049) (Homo sapiens, UniProt Q07889)
parameter-measured: Ki
value-measured: 0.515
//
compound: COCCN1CC2(CCN2c2cc3c(N[C@H](C)c4cccc(C#N)c4C)nnc(C)c3cc2F)C1 [Example P-218, formic acid salt]
system-name: recombinant human SOS1 polypeptide (amino acids 560-1049) (Homo sapiens, UniProt Q07889)
parameter-measured: Ki
value-measured: 0.786
//
compound: Cc1nnc(N[C@H](C)c2cccc(C(F)F)c2F)c2cc(-c3ccc(=O)n(C)c3)ncc12 [Example P-239]
system-name: recombinant human SOS1 polypeptide (amino acids 560-1049) (Homo sapiens, UniProt Q07889)
parameter-measured: Ki
value-measured: 15.1
//
compound: Cc1c(C#N)cccc1[C@@H](C)Nc1nnc(N2CC(N)C2)c2cnc(N3C[C@H]4C[C@@H]3CO4)cc12 [Example P-177]
system-name: recombinant human SOS1 polypeptide (amino acids 560-1049) (Homo sapiens, UniProt Q07889)
parameter-measured: Ki
value-measured: 0.541
//
compound: Cc1c(C#N)cccc1[C@@H](C)Nc1nnc(C)c2cc(Cl)c(N(C)[C@@H]3CCN(C)C3)cc12 [Example P-194]
system-name: recombinant human SOS1 polypeptide (amino acids 560-1049) (Homo sapiens, UniProt Q07889)
parameter-measured: Ki
value-measured: 5.27
//
compound: Cc1c(C#N)cccc1[C@@H](C)Nc1nnc(C)c2cc(F)c(N3CCC34CN(CCO)C4)cc12 [Example P-219]
system-name: recombinant human SOS1 polypeptide (amino acids 560-1049) (Homo sapiens, UniProt Q07889)
parameter-measured: Ki
value-measured: 0.665
//
compound: Cc1c(C#N)cccc1[C@@H](C)Nc1nnc(C)c2ccc(N3CCC34CN(C)C4)cc12 [Example P-235, formic acid salt]
system-name: recombinant human SOS1 polypeptide (amino acids 560-1049) (Homo sapiens, UniProt Q07889)
parameter-measured: Ki
value-measured: 0.618
//
compound: Cc1c(C#N)cccc1[C@@H](C)Nc1nnc(C)c2cc(F)c(N3CCC34COC4)cc12 [Example P-230]
system-name: recombinant human SOS1 polypeptide (amino acids 560-1049) (Homo sapiens, UniProt Q07889)
parameter-measured: Ki
value-measured: 2.51
//
compound: Cc1nnc(N[C@H](C)c2cccc(C(C)(F)F)c2F)c2cc(N(C)C)ncc12 [Example P-170]
system-name: recombinant human SOS1 polypeptide (amino acids 560-1049) (Homo sapiens, UniProt Q07889)
parameter-measured: Ki
value-measured: 2.18
//
compound: Cc1c(C#N)cccc1[C@@H](C)Nc1nnc(C)c2cnc(N3CCC3)cc12 [Example P-224]
system-name: recombinant human SOS1 polypeptide (amino acids 560-1049) (Homo sapiens, UniProt Q07889)
parameter-measured: Ki
value-measured: 3.62
//
compound: Cc1nnc(N[C@H](C)c2cccc(C(C)(F)F)c2F)c2cc(N(C)[C@H]3CCN(C)C3)ncc12 [Example P-200]
system-name: recombinant human SOS1 polypeptide (amino acids 560-1049) (Homo sapiens, UniProt Q07889)
parameter-measured: Ki
value-measured: 0.517
//
compound: COC1(c2cc3c(N[C@H](C)c4cccc(C#N)c4C)nnc(C)c3cn2)CCN(C)CC1 [Example P-69]
system-name: recombinant human SOS1 polypeptide (amino acids 560-1049) (Homo sapiens, UniProt Q07889)
parameter-measured: Ki
value-measured: 51.8
//
compound: Cc1nnc(N[C@H](C)c2cccc(C(F)(F)F)c2F)c2cc(N(C)[C@H]3CCN(C)C3)c(F)cc12 [Example P-181]
system-name: recombinant human SOS1 polypeptide (amino acids 560-1049) (Homo sapiens, UniProt Q07889)
parameter-measured: Ki
value-measured: 0.711
//
compound: Cc1nnc(N[C@H](C)c2cccc(C(C)(F)F)c2F)c2cc(-c3ccc(=O)n(C)c3)ncc12 [Example P-175]
system-name: recombinant human SOS1 polypeptide (amino acids 560-1049) (Homo sapiens, UniProt Q07889)
parameter-measured: Ki
value-measured: 15.4
